Molecular target: T1, MBP-PDZ fusion protein (mammalian (so in the source), UniProt P57105 6-100, limits assumed)
T1 construct: domain: PDZ domain; also called MBP fusion PDZ
T1 sequence (looked up): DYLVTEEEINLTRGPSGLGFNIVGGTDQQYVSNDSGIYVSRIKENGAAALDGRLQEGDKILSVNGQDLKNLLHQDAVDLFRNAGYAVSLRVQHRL
Experiment: beads-binding assay, MBP-PDZ-coupled resin
RECORDED_METRIC: binding result

[
  {
    "BINDER": "P15 (VHH) VHH: QVQLVESGGGLVQAGGSLRLSCVASGRPFSSLDMGWFRQRPGKERDVVATINWTGDSTYYLDSVKGRFTISRDNAKNTVFLQMNSLKPEDTAVYYCAARGGGSSVDSEYDVGEFEYDYWGQGTQVTVSS",
    "RECORDED_MEASUREMENT": "binds"
  },
  {
    "BINDER": "P5 (VHH) VHH: DVQLVESGGGLVQAGDSLRLSCAASGITFRWYTMAWFRQAPGKERDFVATINWSGSDTNYADSVKGRFTISRDNAKNTVTLQMNSLQPEDTAVYYCAGVPGTSLSGETDPRDYDYWGQGTQVTVSE",
    "RECORDED_MEASUREMENT": "binds"
  }
]
